Tested on: Mus musculus
Test: Antidiabetic activity in streptozotocin-induced diabetic ICR mouse assessed as change in blood glucose level at 10 mg/kg after 2 hrs by oral glucose tolerance test (RVb= -12.9 %)
Format: functional
property measured: Activity (%)
Form entry: value (%) — number only.

The following compounds have reported results that may help.
[[record]]
compound = "CCC/C=C1\\OC(=O)C2=C[C@H]3CC[C@]21C1C2=C(CC[C@H]13)/C(=C\\CCC)OC2=O (some centres undefined)"
property_measured = "Activity"
value_measured = -5.5

[[record]]
compound = "CCCC=C1OC(=O)c2ccccc21 [(E)-BUTYLIDENEPHTHALIDE]"
property_measured = "Activity"
value_measured = -7.4

[[record]]
compound = "COc1ccc(Cl)cc1C(=O)NCCc1ccc(S(=O)(=O)NC(=O)NC2CCCCC2)cc1 [GLYBURIDE]"
property_measured = "Activity"
value_measured = -21.5


Form entry - test system: Mus musculus; read-out: Activity; compound: CCC/C=C1\OC(=O)C2=C1CCC=C2 [LIGUSTILIDE]
-15.6

Value source: ChEMBL document CHEMBL1764997
